system_tested: recombinant pentameric gH complex (Towne strain) (human cytomegalovirus, Towne strain) (UniProt P17176)
Sequence (P17176 30-715, one chain of several): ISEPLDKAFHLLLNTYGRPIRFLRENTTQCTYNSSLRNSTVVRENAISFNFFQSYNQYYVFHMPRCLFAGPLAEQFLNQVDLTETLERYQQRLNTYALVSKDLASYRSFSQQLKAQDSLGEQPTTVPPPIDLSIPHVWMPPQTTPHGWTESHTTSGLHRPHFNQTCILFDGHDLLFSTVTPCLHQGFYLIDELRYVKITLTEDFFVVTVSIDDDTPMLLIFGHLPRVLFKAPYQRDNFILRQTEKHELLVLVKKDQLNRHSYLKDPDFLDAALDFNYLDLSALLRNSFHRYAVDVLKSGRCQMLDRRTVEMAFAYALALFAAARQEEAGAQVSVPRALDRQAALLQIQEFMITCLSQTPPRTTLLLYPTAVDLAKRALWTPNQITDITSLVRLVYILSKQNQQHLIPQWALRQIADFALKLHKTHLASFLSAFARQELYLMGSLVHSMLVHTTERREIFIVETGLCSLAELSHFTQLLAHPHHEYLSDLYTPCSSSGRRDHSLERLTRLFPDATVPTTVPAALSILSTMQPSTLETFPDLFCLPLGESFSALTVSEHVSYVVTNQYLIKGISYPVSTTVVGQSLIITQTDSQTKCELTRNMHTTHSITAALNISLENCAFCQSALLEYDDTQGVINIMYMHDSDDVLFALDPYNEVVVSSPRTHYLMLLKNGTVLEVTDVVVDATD
method: BLI competition on His-pentamer; competitor (antibody 2): 276.1
// label = True if Pair-wise inhibition (%) is not less than -10%, otherwise False

Take a look at these entries with their results.
1-103 (antibody, V domains shown) VH: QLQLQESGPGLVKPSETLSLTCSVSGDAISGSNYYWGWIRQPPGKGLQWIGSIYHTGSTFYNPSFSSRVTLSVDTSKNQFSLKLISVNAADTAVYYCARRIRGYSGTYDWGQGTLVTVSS VL: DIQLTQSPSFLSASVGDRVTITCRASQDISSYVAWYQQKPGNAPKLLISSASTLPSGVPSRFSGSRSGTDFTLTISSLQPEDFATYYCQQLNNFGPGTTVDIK ... True
2-25 (antibody, V domains shown) VH: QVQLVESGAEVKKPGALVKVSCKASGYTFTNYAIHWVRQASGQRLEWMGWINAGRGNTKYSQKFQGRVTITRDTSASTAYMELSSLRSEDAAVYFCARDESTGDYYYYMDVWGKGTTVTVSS VL: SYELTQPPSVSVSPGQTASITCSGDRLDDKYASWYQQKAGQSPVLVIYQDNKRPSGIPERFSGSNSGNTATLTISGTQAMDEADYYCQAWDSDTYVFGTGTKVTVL ... False
1-32 (antibody, V domains shown) VH: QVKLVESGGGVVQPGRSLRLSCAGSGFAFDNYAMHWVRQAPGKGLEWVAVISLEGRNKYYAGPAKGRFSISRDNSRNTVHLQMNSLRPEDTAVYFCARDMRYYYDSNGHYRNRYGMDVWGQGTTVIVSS VL: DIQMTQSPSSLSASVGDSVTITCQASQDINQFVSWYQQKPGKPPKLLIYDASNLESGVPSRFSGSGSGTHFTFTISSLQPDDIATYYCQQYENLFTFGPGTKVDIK ... False
3-16 (antibody, V domains shown) VH: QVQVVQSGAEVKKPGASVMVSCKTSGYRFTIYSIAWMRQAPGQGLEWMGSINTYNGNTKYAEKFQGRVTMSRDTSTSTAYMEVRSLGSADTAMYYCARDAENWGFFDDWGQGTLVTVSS VL: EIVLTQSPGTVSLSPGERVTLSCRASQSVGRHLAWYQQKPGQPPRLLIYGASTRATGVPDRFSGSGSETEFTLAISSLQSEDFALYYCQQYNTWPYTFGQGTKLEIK ... True
2-18 (antibody, V domains shown) VH: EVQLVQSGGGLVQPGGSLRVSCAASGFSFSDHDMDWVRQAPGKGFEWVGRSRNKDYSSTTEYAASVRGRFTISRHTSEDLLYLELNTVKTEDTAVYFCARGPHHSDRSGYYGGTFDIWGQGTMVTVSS VL: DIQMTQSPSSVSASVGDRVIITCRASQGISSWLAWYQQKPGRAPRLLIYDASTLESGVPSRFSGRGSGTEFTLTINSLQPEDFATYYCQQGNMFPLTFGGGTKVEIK ... False

Kindly consider the entry below.
Decide: Pair-wise inhibition (%) of 1-150 (antibody, V domains shown) VH: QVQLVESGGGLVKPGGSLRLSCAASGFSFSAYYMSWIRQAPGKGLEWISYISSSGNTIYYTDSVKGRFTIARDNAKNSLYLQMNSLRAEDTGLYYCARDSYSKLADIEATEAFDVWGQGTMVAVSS VL: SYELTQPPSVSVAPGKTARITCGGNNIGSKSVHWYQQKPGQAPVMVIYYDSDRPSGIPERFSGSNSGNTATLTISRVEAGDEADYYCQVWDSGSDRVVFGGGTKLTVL >= -10%?
False
